# system name: SHP2-C SH2;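 further: peptide library displayed on the E. coli surface as eCPX fusions, selected cells deep-sequenced, score is each peptide's frequency after selection divided by its frequency in the input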
# assay notes: SH2 binding enrichment of the phosphorylated peptide, bacterial display (enrichment ratio); higher = better substrate or ligand; peptides without Tyr show the background
readout label: SH2 binding enrichment
Form: value (number only, do not type unit).

// recorded SH2 binding enrichment for ATHSGYRLNDF [CLDN14_Y233_YF] : 0.542

Input PDGREYIYVDP [PDGFRA_Y572_H570R] . Output SH2 binding enrichment: 0.781

Field SH2 binding enrichment (entry VVTGPYEKPSL [KIR3DS1_Y221_L220P] ) reads 0.636

Note to self: SH2 binding enrichment recorded for ELTSVYDSRAR [SENP1_Y349] was 0.395

Please fill in: SH2 binding enrichment reported for EQAERYDDMAA [YWHAG_Y20] = 0.617

// field: SH2 binding enrichment; key: TLNFCYQQVKS [PTK2_Y148_F147C] ; value = 0.896

Value of measured SH2 binding enrichment for the entry GIADDYDKKKL [EIF1_Y54] : 0.496

The reported value for ALEKTYNTFRS [B4GALNT2_Y538_YF] in terms of SH2 binding enrichment is 0.591

Recorded SH2 binding enrichment (sequence GRLFAYPDTHR [CAT_Y358] ): 0.909

Looking up FGGLRYGFGVL [KRTAP20-2_Y13_YF] , I found its SH2 binding enrichment recorded as 0.913

The reported value for QLLIKYPPEEV [ZZZ3_Y670] in terms of SH2 binding enrichment is 1

The reported value for AVEDQYYRVDC [FHL1_Y207_C209R] in terms of SH2 binding enrichment is 0.92

Query FLAVGYHMPHI [IDS_Y225_K227M] yields SH2 binding enrichment of 1.18

The recorded SH2 binding enrichment for GREEFYVHFVG [KAT8_Y90_YF] is 0.621

According to the records, this sequence KVNKIYYPDFI [LIG3_Y767] displays SH2 binding enrichment of 0.695

Form field SH2 binding enrichment, entry PYVYYYSYLLK [PTEN_Y178_R173P] : 0.598

Quick note, SH2 binding enrichment for LDCNEYFRDLN [HPRT1_Y198_Y195C] landed at 0.927

// field: SH2 binding enrichment; key: RVDRDYVLKST [HTATIP2_Y111_A116T] ; value = 0.843

Just so you know, measured SH2 binding enrichment for KEAALYPHLLP [SQSTM1_Y383_P387L] came out at 0.645

Memo: FSMGCYEFSLG [HMGCL_Y198_I200F_YF] , reported SH2 binding enrichment: 0.976

SH2 binding enrichment reading for WKEIEYEVVRD [CPS1_Y634] : 0.65

Noted for LNECHYGALIG [BPGM_Y92_R90C] : its SH2 binding enrichment reads 0.446

Item: GMKIVYVYVKK [DNAI2_Y5_E2K] | SH2 binding enrichment: 0.741

Input QNTGDYCDLYG [PTPN11_Y62_Y63C] . Output SH2 binding enrichment: 1.13

// recorded SH2 binding enrichment for GESLTYVSTTF [C1orf162_Y120_A121V] : 0.712

Query PEQAAYQKVVA [HBB_Y131_V127E] yields SH2 binding enrichment of 0.497

So for REGAKYVSHSA [ASS1_Y113_G117S] , the logged SH2 binding enrichment turned out to be 0.561

Input YSNKLHYQLEQ [PDPR_Y109_Y109H] . Output SH2 binding enrichment: 0.54

Sample DVMDFYKTLRG [NR3C1_Y30] ; SH2 binding enrichment observed: 0.537
